Quick list: Activity of lipase (%) per entry.
# Tested on: monoglyceride lipase
# ASSAY NAME: Effects of surface active agents and metal ions on the monoglyceride lipase
# Format: biochemical, Bacillus stearothermophilus H-165
# CONDITION SUMMARY: reagent concentration 1 mM; no reagent 100; 10 min
Give the quantity in %, number only.

Previously resolved entries follow.
| COMPOUND | NUMERIC RESULT |
| --- | --- |
| C[C@H](CCC(=O)O)[C@H]1CC[C@H]2[C@@H]3[C@H](O)C[C@@H]4C[C@H](O)CC[C@]4(C)[C@H]3C[C@H](O)[C@]12C [Cholic acid] | 100.0 |
| [Cl-].[Cl-].[Mg+2] [MgCl2, magnesium chloride] | 100.0 |
| O=C(O)CN(CCN(CC(=O)O)CC(=O)O)CC(=O)O [EDTA] | 86.0 |

Now for the compound whose Activity of lipase (%) we want.
Query string: What does the data say about its Activity of lipase (%)? Entry: [Ca+2].[Cl-].[Cl-] [CaCl2, calcium chloride]
Result string: 100.0

====

# System: monoglyceride lipase
# ASSAY NAME: Substrate specificity of the monoglyceride lipase (enzymatic activity assay, glycerol formed)
# Assay type: biochemical, Bacillus stearothermophilus H-165
# CONDITION SUMMARY: relative activity of monoglyceride lipase on the substrate; Monolaurin 100.0
ENDPOINT LABEL: Activity of lipase (%)
Give the quantity in %, number only.

Previously resolved entries follow.
| MOLECULE | UOM | Activity of lipase (%) |
| --- | --- | --- |
| CCCCCCCCCCCC(=O)OCC(O)CO (centres unmarked) [Monolaurin] | % | 100.0 |
| CCCCCCCC/C=C\CCCCCCCC(=O)OCC(COC(=O)CCCCCCC/C=C\CCCCCCCC)OC(=O)CCCCCCC/C=C\CCCCCCCC [Triolein] | % | 0 |
| CC(=O)OCC(O)CO (centres unmarked) [Monoacetin] | % | 10.1 |
| CCCCCCCCCCCCCCCCCC(=O)OCC(O)CO (centres unmarked) [Monostearin] | % | 27.6 |

Query string: What does the data say about its Activity of lipase (%)? Entry: CCCCCCCCCCCCCCCC(=O)OCC(O)CO (centres unmarked) [Monopalmitin]
Result string: 39.5
